Each record here notes measured EC50.
System: LXR-β (Homo sapiens)
Sequence (P55055 222-460 limits assumed): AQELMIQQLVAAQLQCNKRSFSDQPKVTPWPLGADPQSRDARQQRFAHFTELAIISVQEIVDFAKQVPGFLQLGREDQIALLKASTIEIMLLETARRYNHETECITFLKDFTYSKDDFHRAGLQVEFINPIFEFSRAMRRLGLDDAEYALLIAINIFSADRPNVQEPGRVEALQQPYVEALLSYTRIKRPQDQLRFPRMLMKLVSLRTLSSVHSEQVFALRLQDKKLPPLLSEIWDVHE
Measurement Description: LanthaScreen TR-FRET LXR beta Coactivator binding assay
Measurement Parameters: EC50 (AC50) from fitted curve, read-out: binding affinity for LXR-β
Write down the numeric answer in nM and omit the unit.

// query Value lookup for EC50; key = O=C(O)Cc1cccc(OCCCN(Cc2cccc(C(F)(F)F)c2Cl)CC(c2ccccc2)c2ccccc2)c1 [compound 1, GW3965, reference compound]
// result 0.5

// query Input `CCc1cnc2c(C(F)(F)F)cccc2c1-c1cccc(Oc2cccc(S(=O)(=O)N(C)CCN)c2)c1`
// result 12

###

System: LXR-α (Homo sapiens, UniProt Q13133)
Sequence (Q13133 209-447 limits assumed): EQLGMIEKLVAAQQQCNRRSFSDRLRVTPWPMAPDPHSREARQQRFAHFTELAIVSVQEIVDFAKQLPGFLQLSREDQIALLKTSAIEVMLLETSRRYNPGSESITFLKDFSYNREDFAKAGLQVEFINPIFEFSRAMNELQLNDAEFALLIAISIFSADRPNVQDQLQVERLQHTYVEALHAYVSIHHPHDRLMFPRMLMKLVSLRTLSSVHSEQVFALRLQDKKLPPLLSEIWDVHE
Measurement Description: LanthaScreen TR-FRET LXR alpha Coactivator binding assay
Measurement Parameters: EC50 (AC50) from fitted curve, read-out: binding affinity for LXR-α
Measured pEC50, listed per entry for reference.
Lab note — pEC50 values are minus log10 of concentrations in M.

compound="O=C(O)Cc1cccc(OCCCN(Cc2cccc(C(F)(F)F)c2Cl)CC(c2ccccc2)c2ccccc2)c1 [compound 1, GW3965, reference compound]" reported=8.96

Below: the item to evaluate.
// query For the compound shown here, `CCc1cnc2c(C(F)(F)F)cccc2c1-c1cccc(Oc2cccc(S(=O)(=O)N(C)CCN)c2)c1` , give the reported pEC50.
// result 8.82
